Assay: Xenograft tumor growth inhibition assay, SKM-1 (AML)
Format: in vivo, Female SCID Beige mice
Conditions: female, SCID Beige, in vivo; mouse SKM-1 xenograft, oral, dose 9.4 mg/kg; read-out: AUC, mouse efficacy, AML (SKM-1)

| Smiles data | Unit tag | AUC |
| --- | --- | --- |
| Cc1cccc(C)c1Oc1ccc(C(C)(C)O)cc1-c1cn(C)c(=O)c2[nH]c(C(=O)NC(C)(C)C)cc12 | ng·h/mL | 5000 |

---

Molecular target: BRD4 (BDI_K57-E168) (Homo sapiens (Human))
Test: TR-FRET bromodomain binding assay, BRD4 BDI
Conditions: mean Ki, calculated from IC50, probe Kd and probe concentration
pKi: −log10 of the molar value.
Experimental endpoint: pKi

| Compound | Experimental endpoint | Endpoint result |
| --- | --- | --- |
| Cc1cc(F)cc(C)c1Oc1ccc(C(C)(C)O)cc1-c1cn(C)c(=O)c2[nH]c(C(=O)NC34CC(C3)C4)cc12 | pKi | 6.13 |
| Cc1cccc(Cl)c1Oc1ccc(C(C)(C)O)cc1-c1cn(C)c(=O)c2[nH]c(C(=O)NC3(C)CC3(F)F)cc12 (stereo not shown) | pKi | 6.15 |
| CCNC(=O)c1cc2c(-c3cc(C(O)(C(C)C)C4CC4)cnc3Oc3c(C)cccc3C)cn(C)c(=O)c2[nH]1 (stereo not shown) | pKi | 7.82 |
| CCNC(=O)c1cc2c(-c3cc(C(C)(C)O)ccc3Oc3c(C)cc(Cl)cc3C)cn(C)c(=O)c2[nH]1 | pKi | 6.21 |
| CCNC(=O)c1cc2c(-c3cc(C(O)(C(F)(F)F)C(F)(F)F)cnc3Oc3c(C)cc(F)cc3C)cn(C)c(=O)c2[nH]1 | pKi | 6.31 |
| CCNC(=O)c1cc2c(-c3cc(C(C)(C)O)c(F)cc3Oc3c(C)cccc3C)cn(C)c(=O)c2[nH]1 | pKi | 6.74 |
| Cc1cc(F)cc(C)c1Oc1ncc(C(C)(C)O)cc1-c1cn(C)c(=O)c2[nH]c(C(=O)NC(C)(C)C)cc12 | pKi | 6.49 |

---

Target: BRD4 (BDI_K57-E168) (Homo sapiens (Human), UniProt O60885)
Test: TR-FRET bromodomain binding assay, BRD4 BDI
Conditions: mean Ki, calculated from IC50, probe Kd and probe concentration
Reported log10(Ki) by item:
Experimental endpoint: log10(Ki) (log10 of the value in nM)

| Molecule | Experimental endpoint | Endpoint result |
| --- | --- | --- |
| CCNC(=O)c1cc2c(-c3cc(C(C)(O)CF)cnc3Oc3c(C)cc(F)cc3C)cn(C)c(=O)c2[nH]1 (stereo not drawn) | log10(Ki) | 2.40 |
| Cc1cc(F)cc(Cl)c1Oc1ncc(C(C)(C)O)cc1-c1cn(C)c(=O)c2[nH]c(C(=O)NC3(C)CC3(F)F)cc12 (stereo not drawn) | log10(Ki) | 3.05 |
| CCNC(=O)c1cc2c(-c3cc(C(O)(CC)CCc4ccccc4)cnc3Oc3c(C)cccc3C)cn(C)c(=O)c2[nH]1 (stereo not drawn) | log10(Ki) | 2.98 |
| CCNC(=O)c1cc2c(-c3cc(C(C)(C)O)cnc3Oc3c(Cl)cc(F)cc3Cl)cn(C)c(=O)c2[nH]1 | log10(Ki) | 2.04 |
| CCNC(=O)c1cc2c(-c3cc(C(C)(C)O)cnc3Oc3c(C)cc(Cl)cc3C)cn(C)c(=O)c2[nH]1 | log10(Ki) | 2.37 |
| CCNC(=O)c1cc2c(-c3cc(C(C)(O)CCO)ccc3Oc3c(C)cccc3C)cn(C)c(=O)c2[nH]1 (stereo not drawn) | log10(Ki) | 2.41 |
| CCNC(=O)c1cc2c(-c3cc(C(O)(C4CCCC4)C4CC4)cnc3Oc3c(C)cccc3C)cn(C)c(=O)c2[nH]1 (stereo not drawn) | log10(Ki) | 1.90 |
| Cc1cccc(Cl)c1Oc1ccc(C(C)(O)CO)cc1-c1cn(C)c(=O)c2[nH]c(C(=O)NC(C)(C)C)cc12 (stereo not drawn) | log10(Ki) | 2.88 |
| Cc1cc(Cl)cc(C)c1Oc1ncc(C(C)(O)CF)cc1-c1cn(C)c(=O)c2[nH]c(C(=O)NC(C)(C)C)cc12 (stereo not drawn) | log10(Ki) | 2.65 |
| Cc1cc(F)cc(C)c1Oc1ccc(C(C)(C)O)nc1-c1cn(C)c(=O)c2[nH]c(C(=O)NC(C)(C)C)cc12 | log10(Ki) | 2.82 |
| CCNC(=O)c1cc2c(-c3nc(C(C)(C)O)ccc3Oc3c(C)cc(F)cc3C)cn(C)c(=O)c2[nH]1 | log10(Ki) | 2.90 |
| Cc1cccc(Cl)c1Oc1ncc(C(C)(C)O)cc1-c1cn(C)c(=O)c2[nH]c(C(=O)NC3(C)CC3(F)F)cc12 (stereo not drawn) | log10(Ki) | 2.81 |
| CCNC(=O)c1cc2c(-c3cc(C(C)(O)c4ccc(F)cc4)cnc3Oc3c(C)cccc3C)cn(C)c(=O)c2[nH]1 (stereo not drawn) | log10(Ki) | 2.67 |
| Cc1cc(S(C)(=O)=O)cc(C)c1Oc1ccc(C(C)(C)O)cc1-c1cn(C)c(=O)c2[nH]c(C(=O)NC(C)(C)C)cc12 | log10(Ki) | 2.20 |
| Cc1cccc(C(F)F)c1Oc1ccc(C(C)(C)O)cc1-c1cn(C)c(=O)c2[nH]c(C(=O)NC(C)(C)C)cc12 | log10(Ki) | 3.36 |
| Cc1cccc(C)c1Oc1ccc(C(C)(C)O)nc1-c1cn(C)c(=O)c2[nH]c(C(=O)NC(C)(C)C)cc12 | log10(Ki) | 2.97 |
| CCNC(=O)c1cc2c(-c3cc(C(C)(C)O)ccc3C3=CCC(F)(F)CC3)cn(C)c(=O)c2[nH]1 | log10(Ki) | 2.18 |
| Cc1cc(F)cc(Cl)c1Oc1ncc(C(C)(C)O)cc1-c1cn(C)c(=O)c2[nH]c(C(=O)NC(C)(C)C)cc12 | log10(Ki) | 2.42 |
| CCNC(=O)c1cc2c(-c3cc(C(C)(C)O)ccc3-c3ccc(OC(F)(F)F)cc3)cn(C)c(=O)c2[nH]1 | log10(Ki) | 2.35 |
| CCNC(=O)c1cc2c(-c3cc(S(C)(=O)=O)ccc3Oc3ccc(F)cc3F)cn(C)c(=O)c2[nH]1 [Compound Y, reference compound] | log10(Ki) | 1.33 |
| CCNC(=O)c1cc2c(-c3cc(C(C)(C)O)ccc3C3=CCC(C)CC3)cn(C)c(=O)c2[nH]1 (stereo not drawn) | log10(Ki) | 1.99 |
| CCNC(=O)c1cc2c(-c3cc(C(C)(O)CCc4ccccc4)cnc3Oc3c(C)cccc3C)cn(C)c(=O)c2[nH]1 (stereo not drawn) | log10(Ki) | 2.72 |
| Cc1cccc(C(F)(F)F)c1Oc1ncc(C(C)(C)O)cc1-c1cn(C)c(=O)c2[nH]c(C(=O)NC3(C)CC3(F)F)cc12 (stereo not drawn) | log10(Ki) | 3.31 |
| CCNC(=O)c1cc2c(-c3cc(C(C)(O)CO)ccc3Oc3c(C)cccc3C(F)(F)F)cn(C)c(=O)c2[nH]1 (stereo not drawn) | log10(Ki) | 3.18 |
| CCNC(=O)c1cc2c(-c3cc(C(C)(C)O)ccc3Oc3c(C)cccc3Cl)cn(C)c(=O)c2[nH]1 | log10(Ki) | 2.45 |
| CCNC(=O)c1cc2c(-c3cc(C(C)(C)O)ccc3Oc3c(C)ccc(F)c3C)cn(C)c(=O)c2[nH]1 | log10(Ki) | 2.57 |
| Cc1cccc(C)c1Oc1ncc(C(C)(C)O)cc1-c1cn(C)c(=O)c2[nH]c(C(=O)NC3(C)CC3(F)F)cc12 (stereo not drawn) | log10(Ki) | 2.86 |

---

Reported Ki by item:
Biological target: BRD4 (BDI_K57-E168) (Homo sapiens (Human))
Assay: TR-FRET bromodomain binding assay, BRD4 BDI
Details: mean Ki, calculated from IC50, probe Kd and probe concentration
Procedure: A time-resolved fluorescence resonance energy transfer (TR-FRET) assay was used to determine the affinities of compounds of the Examples listed in Table 1 for each bromodomain of BRD4. His-tagged first (BDI: amino acids K57-E168) and second (BDII: amino acids E352-M457) bromodomains of BRD4 were expressed and purified. […] After a one-hour equilibration at room temperature, TR-FRET ratios were determined using an Envision multilabel plate reader (Ex 340, Em 495/520). […]
Experimental endpoint: Ki (nM)

| Compound | Unit tag | Endpoint result |
| --- | --- | --- |
| Cc1cccc(C(F)(F)F)c1Oc1ncc(C(C)(C)O)cc1-c1cn(C)c(=O)c2[nH]c(C(=O)NC(C)(C)C)cc12 [Example 45] | nM | 1080 |
| CCNC(=O)c1cc2c(-c3cc(C(C)(C)O)cnc3-c3ccc(F)cc3F)cn(C)c(=O)c2[nH]1 [Example 89] | nM | 281 |
| CCNC(=O)c1cc2c(-c3cc(C(C)(C)O)ccc3Oc3c(C)cc(C(C)(C)O)cc3C)cn(C)c(=O)c2[nH]1 [Example 107] | nM | 231 |
| Cc1cccc(C(F)(F)F)c1Oc1ncc(C(C)(C)O)cc1-c1cn(C)c(=O)c2[nH]c(C(=O)NC(C)(C)C(F)(F)F)cc12 [Example 46] | nM | 2520 |
